target entity: Mitogen-activated protein kinase kinase kinase 5 (Homo sapiens)
Sequence (Q99683 whole entry): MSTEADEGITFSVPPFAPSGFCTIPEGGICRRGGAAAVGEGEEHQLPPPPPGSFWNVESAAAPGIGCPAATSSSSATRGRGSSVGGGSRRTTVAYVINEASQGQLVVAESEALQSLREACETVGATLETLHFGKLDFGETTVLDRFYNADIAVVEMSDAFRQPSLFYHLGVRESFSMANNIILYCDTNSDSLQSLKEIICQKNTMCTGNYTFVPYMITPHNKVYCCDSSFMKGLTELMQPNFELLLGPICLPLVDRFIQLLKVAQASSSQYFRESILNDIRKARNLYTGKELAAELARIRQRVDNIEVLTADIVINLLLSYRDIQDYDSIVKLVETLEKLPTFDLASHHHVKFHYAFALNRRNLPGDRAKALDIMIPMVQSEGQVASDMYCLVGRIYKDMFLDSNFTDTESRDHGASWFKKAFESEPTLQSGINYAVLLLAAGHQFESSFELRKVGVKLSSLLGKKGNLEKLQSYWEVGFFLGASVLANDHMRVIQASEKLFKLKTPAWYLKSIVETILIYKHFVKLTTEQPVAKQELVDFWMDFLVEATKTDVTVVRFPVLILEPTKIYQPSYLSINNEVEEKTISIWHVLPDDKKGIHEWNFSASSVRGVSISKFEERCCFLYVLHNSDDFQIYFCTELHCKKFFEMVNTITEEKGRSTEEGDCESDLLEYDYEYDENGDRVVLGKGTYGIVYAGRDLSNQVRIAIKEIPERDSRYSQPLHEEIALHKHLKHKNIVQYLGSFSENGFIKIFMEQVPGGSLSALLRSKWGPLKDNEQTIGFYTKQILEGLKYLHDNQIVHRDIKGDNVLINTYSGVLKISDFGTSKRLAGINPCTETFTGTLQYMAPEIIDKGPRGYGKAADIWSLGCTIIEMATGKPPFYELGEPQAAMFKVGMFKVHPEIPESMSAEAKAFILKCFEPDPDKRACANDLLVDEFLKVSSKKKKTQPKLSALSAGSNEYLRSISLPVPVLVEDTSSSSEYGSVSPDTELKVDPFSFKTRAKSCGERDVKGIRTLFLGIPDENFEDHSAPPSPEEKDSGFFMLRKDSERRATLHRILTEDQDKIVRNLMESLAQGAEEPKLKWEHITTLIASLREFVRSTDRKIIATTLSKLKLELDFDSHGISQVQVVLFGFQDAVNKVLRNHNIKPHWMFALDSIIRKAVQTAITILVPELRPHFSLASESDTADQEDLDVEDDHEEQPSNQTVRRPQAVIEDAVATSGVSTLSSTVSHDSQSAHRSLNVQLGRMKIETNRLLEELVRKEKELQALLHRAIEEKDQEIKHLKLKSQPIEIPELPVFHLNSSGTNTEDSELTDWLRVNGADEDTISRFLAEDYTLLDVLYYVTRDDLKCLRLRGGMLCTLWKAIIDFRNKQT
test: HTRF KinEASE Assay : ASK1 was purchased from Thermofisher (Catalogue #PV4011), ATP was purchased from Sigma (Catalogue #A7699), HTRF® KinEASE Assay System was obtained from Cisbio (Bedford, Mass.). ½ Area plate was purchased from Perkin Elmer (Catalogue ##6005560). HTRF® KinEASE-STK is a generic method for measuring serine/threonine kinase activities using a time-resolved fluorescence resonance energy transfer (TR-FRET) immunoassay. The IC50 value for each compound was determined in the presence of compound (various concentration from 0 to 10 μM) and a fixed amount of ATP and peptide substrates. The test compound, 1 μM STK3 peptide substrate, and […] are incubated with kinase reaction buffer containing 50 mM HEPES Ph 7.5, 0.01% BRIJ-35, 10 mM MgCl2, and 1 mM EGTA for 30 minutes. 100 μM ATP is added to start kinase reaction and incubated for 3 hours. The STK3-antibody labeled with Eu3+-Cryptate and 125 nM streptavidin-XL665 are mixed in a single addition with stop reagents provided by the Cisbio kit used to stop the kinase reaction. Fluorescence is detected using an Envision Multilabeled 2014 reader from PerkinElmer. The Fluorescence is measured at 615 nm (Cryptate) and 665 nm (XL665) and a ratio of 665 nm/615 nm is calculated for each well. The resulting TR-FRET is proportional to the phosphorylation level. Staurosporine was used as the positive control. IC50 was determined by Xlfit 5.3.
value type: IC50

Known results for molecules:
compound structure string: COc1cc2c(cc1C(=O)Nc1cccc(-c3nncn3[C@H](C)CO)n1)CN(C(=O)OCC(F)(F)F)CC2
IC50: 1.25 to 10 nM
//
compound structure string: COc1cc2c(cc1C(=O)Nc1cccc(-c3nnnn3[C@H](C)CO)n1)CN(C(=O)C[C@H](C)O)CC2
IC50: < 1.25 nM
//
compound structure string: COc1cc2c(cc1C(=O)Nc1cccc(-c3nnnn3C(C)C)n1)CN(C)CC2
IC50: < 1.25 nM
//
compound structure string: C[C@H](CO)n1cnnc1-c1cccc(NC(=O)c2cc3c(cc2F)CCN(C(=O)OC2CC2)C3)n1
IC50: 1.25 to 10 nM
//
compound structure string: CCOC(=O)N1CCc2cc(OC)c(C(=O)Nc3cccc(-c4nnnn4[C@H](C)CO)n3)cc2C1
IC50: 1.25 to 10 nM

The reported IC50 of the molecule C[C@H](CO)n1cnnc1-c1cccc(NC(=O)c2cc3c(cc2F)CCN(C(=O)OC2CCCC2)C3)n1 was 1.25 to 10 nM

The reported IC50 of the molecule COc1cc2c(cc1C(=O)Nc1cccc(-c3nncn3[C@H](C)CO)n1)CN(C(=O)C(C)(C)C)CC2 was < 1.25 nM

The reported IC50 of the molecule COc1cc2c(cc1C(=O)Nc1cccc(-c3nncn3[C@H](C)CO)n1)CN(C(=O)OC(C)C)CC2 was 1.25 to 10 nM

Values from ChEMBL document CHEMBL5729134
